Molecular target: T1, PUF4 RNA-binding domain (Saccharomyces cerevisiae, UniProt P25339 537-888)
T1 sequence: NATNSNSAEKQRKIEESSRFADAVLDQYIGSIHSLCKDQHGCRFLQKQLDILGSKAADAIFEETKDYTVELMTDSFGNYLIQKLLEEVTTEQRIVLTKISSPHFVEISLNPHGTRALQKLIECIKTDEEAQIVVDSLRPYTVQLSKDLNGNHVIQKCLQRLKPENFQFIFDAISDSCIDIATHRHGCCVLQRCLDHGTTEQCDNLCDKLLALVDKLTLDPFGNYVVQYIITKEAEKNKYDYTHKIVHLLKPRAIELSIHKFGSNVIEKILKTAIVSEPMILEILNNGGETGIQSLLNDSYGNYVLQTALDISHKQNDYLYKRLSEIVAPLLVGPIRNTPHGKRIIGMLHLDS
Experiment: Mg; RNA-MaP; 20 mM Na-HEPES pH 7.4, 30 mM KOAc, 0.75 mM MgCl2, 0.1% Tween-20, 5% glycerol, 0.1 mg/mL BSA, 2 mM DTT; 25 C; 0.0125-409.6 nM protein
Settings: tags: N-His6-TEV cleaved; C-SNAP kept, Cy3B-labelled; label: tethered on chip by stalled RNA polymerase
Hi there, I'd appreciate the recorded Kd for every entry that follows.
Value expressed in nM; do not type the unit.

Given the binder Ie_S2_P4E.1_K4.1_C4.1_H4.1_A4.1_[+6CTCT]_F4.1_T4.1 (ssRNA) RNA: UUUGAUUAAUAUGAUAUCGUUCUUUCUUGUAUACUCUUUAUUCUUUCUCGAUAUCAUAUUAAUCUUU , what is its reported Kd?
6.3

Data request, read-out Kd, for Id_iii_S4_P5E.8_K5.4_C5.3_H5.1_A5.2_F5.1_T5.2_[A12C] (ssRNA) RNA: UUUGACAACUGAUCGUUCUUUCUUCUUGUAAUAUUAUCUUCUUUCUCGAUCAGUUGUCUUU
2.73

Please give the measured Kd for this binder: Ie_S2_P4E.1_K4.1_C4.1_H4.1_[+4CCCT]_A4.1_F4.1_T4.1 (ssRNA) RNA: UUUGAUUAAUAUGAUAUCGUUCUUUCUUGUACCCUUAUUAUUCUUUCUCGAUAUCAUAUUAAUCUUU
1.96

Dear colleague, I am looking for the recorded Kd of the following binder: Id_ii_S2_P4E.4_K4.3_C4.2_[T-1C]_H4.3_A4.1_F4.1_T4.2_[G10T]_[T11A] (ssRNA) RNA: UUUGAUUAAUAUGAUAUCGUUCUUUCUCCACACUAUUAUAUUCUUUCUCGAUAUCAUAUUAAUCUUU
594

What does the record list as Kd for UCUCUUCUAUGUAUAUAUAUCUCUU (ssRNA) [Id_i_S1_P3E.5_K3.1_C3.3_[T-3C]_[C-2T]_[T-1A]_H3.1_A3.1_F3.1_T3.2] ?
10.2

// Kd lookup, key: UCUCUUACUAUAUAUUACUUCUCUU (ssRNA) [Id_ii_S1_P4E.3_K4.2_C4.2_[C-2A]_[T-1C]_H4.2_A4.1_F4.1_T4.2_[G10C]]
26.2

Any idea what Kd was measured for ACAAACUGCCCUAUAUUAACAAAC (ssRNA) [Ie_S3_P4E.1_K4.1_C4.1_H4.1_[+2CCC]_A4.1_F4.1_T4.1] ?
1560

Field request: Kd | item: UCUCUUUGUAACAUUUCUCUU (ssRNA) [Ic_S1_P4E.1_K4.1_C4.1_H4.1_A4.1_[T5A]_[A6C]_[T7A]_F4.1_[A9T]_T4.1]
13.9

Looking for the measured Kd of UCUCUUUGUACAAUAGUCUCUU (ssRNA) [Ic_S1_P5E.1_K5.1_C5.1_H5.1_A5.1_[T5C]_[T6A]_F5.1_[T9A]_[A10G]_T5.1] , can you help?
0.742

Dear colleague, I am looking for the recorded Kd of the following binder: Id_ii_S2_P4E.4_K4.3_C4.2_H4.3_A4.1_F4.1_T4.2_[G10C]_[T11C] (ssRNA) RNA: UUUGAUUAAUAUGAUAUCGUUCUUUCUCUACACUAUUACCUUCUUUCUCGAUAUCAUAUUAAUCUUU
563

Given the entry Ie_S4_P4E.1_K4.1_C4.1_H4.1_[+3TCC]_A4.1_F4.1_T4.1 (ssRNA) RNA: UUUGACAACUGAUCGUUCUUUCUUGUUCCAUAUUAUUCUUUCUCGAUCAGUUGUCUUU , report its measured Kd.
7.68

Where do the numbers come from? From paper PMC9352680.
